- target desc: RSV prefusion F (preF), subtype B (respiratory syncytial virus, subtype B)
- assay text: BLI, IgG
measurement label: pKd
Schema: pKd number; meaning minus log10 of the concentration expressed in molar units.

The binder listed as ADI-21025 (antibody, V domains shown) VH: EVQLVESGGGLVRPGGSLRLSCEASGLKLSGYSMNWVRQAPGKGLEWVSSISASSSYIHYADSLKGRFTISRDNAKNSLYLQMNSLRAEDTAVYYCVASWLTPGWFDPWGQGTLVTVSS VL: QPVLTQPPSVSGAPGQTVTISCTGSSSNIGAGYDVHWYQQLPGTAPKLLIYGNTNRPSGVPDRFSGSKSGTSASLAVTGLQAEDEGDYYCQSYDSSLSGSAFGGGTKLTVL shows pKd equal to 9.53

Per the records, this binder ( ADI-14573 (antibody, V domains shown) VH: QVQLVQSGAEVKKPGASVKVSCKASGYTFTTYGISWVRQAPGQGLEWMGWISTYKTYTNYAQKFQGRVTMTTDTSTSTAYMELRSLRSDDTAVYYCAKVAGGSGSYGDYWGQGTLVTVSS VL: QPVLTQPPSVSVAPGKTARITCGGNNIGSKSVHWYLQKPGQAPVLVIYYDSDRPSGIPERFSGSNSGNTATLTISRVEAGDEADFFCQVWDSSSDHWVFGGGTKVTVL ) has pKd equal to 7.68

Lab book: pKd of ADI-14585 (antibody, V domains shown) VH: QVQLVQSGAEVKKPGASVKVSCKASGYTFANYGIGWVRQAPGQGLEWMGWISAYNGKTNYAQKFQGRVTMTTDTSTSTAYMELRSLRSDDTAVYYCAREPPVIAAGDFPHWGQGTLVTVSS VL: ETTLTQSPLSLPVTLGQPASISCRSSQSLEHSDLNTYLSWFQQRPGQSPRRLIYKVSNRDSGVPDRFSGSGSGTDFTLRISRVEAEDVGVYYCMQGTHWPPDFGQGTRLEIK noted as 9.35
